# Study system: C-C chemokine receptor type 3 (Homo sapiens, UniProt P51677)
# Sequence (P51677 whole entry): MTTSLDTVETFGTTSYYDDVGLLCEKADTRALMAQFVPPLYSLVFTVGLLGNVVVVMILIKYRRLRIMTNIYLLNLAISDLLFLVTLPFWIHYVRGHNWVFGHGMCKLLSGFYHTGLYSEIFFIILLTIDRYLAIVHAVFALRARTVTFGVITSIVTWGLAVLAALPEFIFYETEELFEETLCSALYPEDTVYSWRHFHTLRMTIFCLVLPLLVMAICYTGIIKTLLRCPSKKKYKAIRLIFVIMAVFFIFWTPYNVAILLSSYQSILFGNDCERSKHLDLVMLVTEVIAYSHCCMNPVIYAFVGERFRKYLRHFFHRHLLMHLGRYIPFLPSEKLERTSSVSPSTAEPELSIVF
# Protocol summary: Inhibitory activity against recombinant human Chemokine receptor type 3 (CCR3) expressed in chinese hamster ovary cells
# Format: cell-based, CHO
pIC50: −log10 of the molar value.
Measure: pIC50

>>> df
                              smiles_record  observed_result
0  O=C(NCCc1ccc(F)cc1)NCC(CCCN1CCC(O)(c2ccc(Cl)cc2)CC1)(c1ccccc1)c1ccccc1             5.66
1  O=C(Nc1cc(F)ccc1F)Nc1ccccc1CN1CCC(Cc2ccccc2)CC1             5.76
2  COC(=O)c1cccc(NC(=O)Nc2cccc(C#N)c2)c1CN1CCC(Cc2ccc(F)cc2)CC1             8.15
3  O=C(NCC1CCCCC1)NCC(CCCN1CCC(O)(c2ccc(Cl)cc2)CC1)(c1ccccc1)c1ccccc1             5.62

###

# Study system: C-C chemokine receptor type 3 (Homo sapiens, UniProt P51677)
# Protocol summary: Inhibitory activity against recombinant human Chemokine receptor type 3 (CCR3) expressed in chinese hamster ovary cells
# Type: cell-based, CHO
List of IC50 values.
Measure: IC50 (µM)

In [3]: df
Out[3]:
                              smiles_record  observed_result
0  O=C(Nc1cccc(CN2CCC(Cc3ccccc3)CC2)c1)Nc1ccc2[nH]ncc2c1             0.62
1  COC(=O)c1cccc(NC(=O)Nc2ccccc2)c1CN1CCC(Cc2ccc(F)cc2)CC1            0.009
2  O=C(NCc1ccc2c(c1)OCO2)Nc1ccccc1CN1CCC(C(=O)c2ccccc2)CC1             7.35
3  O=C(Nc1ccccc1CN1CCC(Cc2ccccc2)CC1)NC1CCN(Cc2ccccc2)CC1              3.9
4  O=C(NCCCCO)NCC(CCCN1CCC(O)(c2ccc(Cl)cc2)CC1)(c1ccccc1)c1ccccc1             5.95

The values you see were collected from ChEMBL document CHEMBL1135587.
